Biological target: MERTK (UniProt Q12866)
Sequence (Q12866 whole entry, looked up): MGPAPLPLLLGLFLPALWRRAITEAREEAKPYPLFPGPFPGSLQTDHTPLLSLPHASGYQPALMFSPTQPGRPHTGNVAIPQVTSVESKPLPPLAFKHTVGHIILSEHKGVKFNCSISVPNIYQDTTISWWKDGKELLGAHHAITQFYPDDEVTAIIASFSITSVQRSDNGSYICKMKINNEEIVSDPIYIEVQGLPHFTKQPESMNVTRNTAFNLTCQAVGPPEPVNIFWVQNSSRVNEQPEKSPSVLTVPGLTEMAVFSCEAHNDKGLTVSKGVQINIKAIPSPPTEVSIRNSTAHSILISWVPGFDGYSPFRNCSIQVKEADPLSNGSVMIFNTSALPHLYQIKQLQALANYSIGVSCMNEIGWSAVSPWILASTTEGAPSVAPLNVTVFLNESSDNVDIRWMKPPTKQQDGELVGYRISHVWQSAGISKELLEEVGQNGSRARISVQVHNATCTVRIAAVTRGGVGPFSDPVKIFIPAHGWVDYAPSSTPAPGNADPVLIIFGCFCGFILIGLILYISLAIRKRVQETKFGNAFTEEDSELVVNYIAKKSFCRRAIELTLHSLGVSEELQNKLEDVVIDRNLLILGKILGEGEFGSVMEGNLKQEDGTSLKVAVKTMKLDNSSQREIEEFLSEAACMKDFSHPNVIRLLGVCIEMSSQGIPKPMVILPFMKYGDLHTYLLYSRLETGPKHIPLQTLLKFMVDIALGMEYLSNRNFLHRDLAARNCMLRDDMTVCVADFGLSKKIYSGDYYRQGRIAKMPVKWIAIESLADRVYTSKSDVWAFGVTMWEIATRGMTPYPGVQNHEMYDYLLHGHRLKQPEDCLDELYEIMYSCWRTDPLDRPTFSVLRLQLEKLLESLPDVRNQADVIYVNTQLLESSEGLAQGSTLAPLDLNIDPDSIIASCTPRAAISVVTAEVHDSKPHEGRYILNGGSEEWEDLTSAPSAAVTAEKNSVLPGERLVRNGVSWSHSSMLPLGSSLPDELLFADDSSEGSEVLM
Assay: phosphorylation enrichment, bacterial display (enrichment ratio); higher = better substrate or ligand; peptides without Tyr show the background;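 note: 11-residue human phosphosite peptides and single-mutation variants displayed on the E. coli surface, counted by deep sequencing, each peptide's frequency after selection divided by its frequency in the unselected input library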;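 note: frequency after pTyr selection over input frequency; kinase dosed for 20-30% of maximal phosphorylation in three min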
Class fulfilled: phosphorylation enrichment at least 0.4. Class not fulfilled: phosphorylation enrichment below 0.4.

Solved entries (count: 5):
In plain terms: is recorded phosphorylation enrichment at least 0.4 for ANSSFHSTRSA [NUMA1_Y1836_Y1836H] ?
fulfilled

In plain terms: is recorded phosphorylation enrichment at least 0.4 for PSQRHYVYYYS [PTEN_Y174_R173H] ?
fulfilled

In plain terms: is recorded phosphorylation enrichment at least 0.4 for DTFDPYLDIAL [USP36_Y268_V271I_YF] ?
fulfilled

In plain terms: is recorded phosphorylation enrichment at least 0.4 for FDNPVCQKTTE [LDLR_Y828_Y828C] ?
fulfilled

In plain terms: is recorded phosphorylation enrichment at least 0.4 for CEQELYSQLVF [WAS_Y102_W97C_YF] ?
fulfilled

Further cases:
In plain terms: is recorded phosphorylation enrichment at least 0.4 for AQAGEYGAEAL [HBA1_Y25_H21Q] ?
not fulfilled

In plain terms: is recorded phosphorylation enrichment at least 0.4 for MVTSGYKAKMI [EFR3A_Y447_T451M] ?
fulfilled

In plain terms: is recorded phosphorylation enrichment at least 0.4 for VMIFAYLLHRG [PTEN_Y138_C136Y_YF] ?
not fulfilled

---

Recorded phosphorylation enrichment values for a group of sequences are listed next.
Tested on: c-Src
Experiment: phosphorylation enrichment, bacterial display (enrichment ratio); higher = better substrate or ligand; peptides without Tyr show the background
Could you respond with only the numeric value?

Completed entries (count: 10):
Bench note: what phosphorylation enrichment did YGGLRYGYGGL [KRTAP20-2_Y13_V17G] show?
0.76

Bench note: what phosphorylation enrichment did LFMGDYVGRGY [PPP2CA_Y86_D88G] show?
1.53

Bench note: what phosphorylation enrichment did KFMVGYEMLAK [GALT_Y339_Q344K] show?
0.406

Bench note: what phosphorylation enrichment did RRIHSYRGRLW [VHL_Y112_H115R] show?
0.7

Bench note: what phosphorylation enrichment did RDEHGYISRCF [HSPB1_Y133_Q128R] show?
0.675

Bench note: what phosphorylation enrichment did GFRVCYTPDSR [PTPRF_Y451_Y450C_YF] show?
0.451

Bench note: what phosphorylation enrichment did PLLLSYYLIKW [NUP160_Y773] show?
0.854

Bench note: what phosphorylation enrichment did KDHPDYKFQAR [SOX10_Y171_P175A_YF] show?
0.489

Bench note: what phosphorylation enrichment did QDLTDYLMKIL [ACTA2_Y190_R185Q] show?
0.546

Bench note: what phosphorylation enrichment did SISLRYEGRVF [ABL1_Y167_YF] show?
0.372

Further cases:
Bench note: what phosphorylation enrichment did DLDLTYIYPNI [PTEN_Y27] show?
1.4

Bench note: what phosphorylation enrichment did SREDIYKRNIE [PDE4DIP_Y45] show?
0.405

Bench note: what phosphorylation enrichment did KKGMIYGGGGG [PSME1_Y249_T244K] show?
0.442

Bench note: what phosphorylation enrichment did PSQRRYVFFFS [PTEN_Y174_YF] show?
0.6

---

System: AncSZ
Assay: phosphorylation enrichment, bacterial display (enrichment ratio); higher = better substrate or ligand; peptides without Tyr show the background
Class Y: phosphorylation enrichment at least 1. Class N: phosphorylation enrichment below 1.

Solved entries (count: 6):
In plain terms: is recorded phosphorylation enrichment at least 1 for SGIYQYNIAKF [FOXL2_Y83_I84N] ?
N

In plain terms: is recorded phosphorylation enrichment at least 1 for HDRREYSRFEK [ITGB7_Y758_Y753H] ?
N

In plain terms: is recorded phosphorylation enrichment at least 1 for FKRAVYCIIGR [NUP93_Y391_YF] ?
N

In plain terms: is recorded phosphorylation enrichment at least 1 for KLVRLYAVVTR [LYN_Y306] ?
Y

In plain terms: is recorded phosphorylation enrichment at least 1 for GDPTEYFITAI [IGSF22_Y501_S503I_YF] ?
Y

In plain terms: is recorded phosphorylation enrichment at least 1 for TIQIMYGCDVG [HLA-A_Y123] ?
Y

Further cases:
In plain terms: is recorded phosphorylation enrichment at least 1 for HFNLTYRILSF [MMP23B_Y95] ?
Y

In plain terms: is recorded phosphorylation enrichment at least 1 for INSLKYAYNIS [EIF2B5_Y583] ?
N

In plain terms: is recorded phosphorylation enrichment at least 1 for REGAKYVSHDA [ASS1_Y113_G117D] ?
Y

In plain terms: is recorded phosphorylation enrichment at least 1 for LKETGYVVERP [BCLAF1_Y466] ?
N

In plain terms: is recorded phosphorylation enrichment at least 1 for SVCPDYDLCSI [SQSTM1_Y148_V153I] ?
Y

In plain terms: is recorded phosphorylation enrichment at least 1 for EKNANYKEGTF [CLRN1_Y171_I168N_YF] ?
N

In plain terms: is recorded phosphorylation enrichment at least 1 for FDEFRYRSVIK [CFTR_Y517_YF] ?
N

In plain terms: is recorded phosphorylation enrichment at least 1 for MPLDQYSPSFP [FGFR1_Y776] ?
N

---

Target: Jak2 (UniProt O60674)
Sequence (O60674 whole entry, looked up): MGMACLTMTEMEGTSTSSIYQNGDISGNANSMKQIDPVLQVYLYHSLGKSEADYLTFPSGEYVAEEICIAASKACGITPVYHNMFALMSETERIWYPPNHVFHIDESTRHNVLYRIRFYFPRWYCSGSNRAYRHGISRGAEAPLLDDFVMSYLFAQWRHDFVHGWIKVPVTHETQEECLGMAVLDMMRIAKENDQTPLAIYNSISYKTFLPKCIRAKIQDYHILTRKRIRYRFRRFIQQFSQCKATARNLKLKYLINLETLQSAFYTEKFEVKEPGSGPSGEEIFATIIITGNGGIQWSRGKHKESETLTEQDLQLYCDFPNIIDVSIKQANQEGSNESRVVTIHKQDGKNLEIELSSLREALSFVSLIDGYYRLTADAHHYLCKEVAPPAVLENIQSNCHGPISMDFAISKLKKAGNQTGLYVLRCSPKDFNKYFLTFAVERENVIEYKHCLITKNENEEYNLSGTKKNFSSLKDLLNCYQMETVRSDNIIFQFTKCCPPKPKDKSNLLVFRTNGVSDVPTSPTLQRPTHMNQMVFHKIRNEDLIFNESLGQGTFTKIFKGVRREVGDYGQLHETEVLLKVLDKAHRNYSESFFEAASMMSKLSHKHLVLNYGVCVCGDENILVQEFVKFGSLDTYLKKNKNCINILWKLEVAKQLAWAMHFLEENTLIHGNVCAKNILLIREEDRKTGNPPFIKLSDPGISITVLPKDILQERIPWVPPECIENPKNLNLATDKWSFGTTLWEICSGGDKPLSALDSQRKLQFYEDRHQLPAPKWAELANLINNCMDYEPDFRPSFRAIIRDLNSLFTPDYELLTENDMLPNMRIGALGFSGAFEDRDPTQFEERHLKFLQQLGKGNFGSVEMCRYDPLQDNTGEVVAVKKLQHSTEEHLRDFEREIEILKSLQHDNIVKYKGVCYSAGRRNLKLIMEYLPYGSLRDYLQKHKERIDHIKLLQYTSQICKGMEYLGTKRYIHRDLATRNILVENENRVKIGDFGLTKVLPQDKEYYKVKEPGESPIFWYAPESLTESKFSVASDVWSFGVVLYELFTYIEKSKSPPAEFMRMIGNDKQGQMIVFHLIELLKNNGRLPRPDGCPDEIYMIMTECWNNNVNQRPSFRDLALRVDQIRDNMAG
Assay: phosphorylation enrichment, bacterial display (enrichment ratio); higher = better substrate or ligand; peptides without Tyr show the background
Class y: phosphorylation enrichment at least 0.8. Class n: phosphorylation enrichment below 0.8.

Solved entries (count: 2):
In plain terms: is recorded phosphorylation enrichment at least 0.8 for LDLPGYCPLRE [CCDC116_Y291] ?
y

In plain terms: is recorded phosphorylation enrichment at least 0.8 for KACKHYLTKRT [ZBTB5_Y118_T121K] ?
y

Further cases:
In plain terms: is recorded phosphorylation enrichment at least 0.8 for EPGSLYGCGGG [ATM_Y2019_D2016G] ?
n

In plain terms: is recorded phosphorylation enrichment at least 0.8 for APAHKYHGGGG [HBD_Y146_L142P] ?
n

In plain terms: is recorded phosphorylation enrichment at least 0.8 for NFRRGYHLQVL [CD200R1L_Y138_H135R] ?
n

In plain terms: is recorded phosphorylation enrichment at least 0.8 for PLLLSYYLIKW [NUP160_Y773] ?
y

In plain terms: is recorded phosphorylation enrichment at least 0.8 for REGAKYVSHDA [ASS1_Y113_G117D] ?
y

In plain terms: is recorded phosphorylation enrichment at least 0.8 for RSYSPCDYQPC [TNS1_Y796_Y796C] ?
n

In plain terms: is recorded phosphorylation enrichment at least 0.8 for YETVKYFNNER [ABCB7_Y345] ?
n

In plain terms: is recorded phosphorylation enrichment at least 0.8 for EKMWTYMPSAE [GRIA4_Y695_R697P] ?
n

In plain terms: is recorded phosphorylation enrichment at least 0.8 for LVLIKYLPEWT [PSEN1_Y240_F237L] ?
y

In plain terms: is recorded phosphorylation enrichment at least 0.8 for KDKLPYPYDDP [GPX2_Y125] ?
y

In plain terms: is recorded phosphorylation enrichment at least 0.8 for MAFDRYVAVCA [OR52J3_Y125] ?
y

---

Molecular target: Hck (UniProt P08631)
Sequence (P08631 whole entry, looked up): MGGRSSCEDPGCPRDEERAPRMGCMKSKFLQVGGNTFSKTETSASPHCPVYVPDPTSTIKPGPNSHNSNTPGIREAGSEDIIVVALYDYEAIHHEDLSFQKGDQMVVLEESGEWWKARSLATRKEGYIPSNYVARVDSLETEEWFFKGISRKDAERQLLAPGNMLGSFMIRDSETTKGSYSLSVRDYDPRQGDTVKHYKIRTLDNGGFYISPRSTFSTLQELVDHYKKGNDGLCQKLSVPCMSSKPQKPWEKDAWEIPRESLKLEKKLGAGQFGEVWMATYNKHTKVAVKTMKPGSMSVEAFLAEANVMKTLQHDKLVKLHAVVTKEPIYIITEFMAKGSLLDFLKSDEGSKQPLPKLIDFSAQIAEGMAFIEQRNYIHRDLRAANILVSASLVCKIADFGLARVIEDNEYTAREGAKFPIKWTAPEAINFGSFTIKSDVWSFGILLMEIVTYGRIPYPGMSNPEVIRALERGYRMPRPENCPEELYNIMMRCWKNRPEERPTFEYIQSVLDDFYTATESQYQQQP
Assay: phosphorylation enrichment, bacterial display (enrichment ratio); higher = better substrate or ligand; peptides without Tyr show the background
Recorded phosphorylation enrichment values for a group of sequences are listed next.
Could you respond with only the numeric value?

Bench note: what phosphorylation enrichment did VLPIDYYFPPQ [AR_Y552] show?
0.869

Bench note: what phosphorylation enrichment did EPTPGYEVSQR [TSC2_Y1788_G1791S] show?
0.441

Bench note: what phosphorylation enrichment did NLVSEYQQFQD [TUBB3_Y422_D417N_YF] show?
0.535

Bench note: what phosphorylation enrichment did NTGNYYDLYGG [PTPN11_Y63_D61N] show?
6.84

Bench note: what phosphorylation enrichment did AGIKAYQSCLQ [ADGRA2_Y377_T375K] show?
0.537

Bench note: what phosphorylation enrichment did FSLPAFMDRRD [COX4I1_Y38_Y38F] show?
0.41

Bench note: what phosphorylation enrichment did CGPLLYGLVHQ [PRKCG_Y122_S119P] show?
4.88

Bench note: what phosphorylation enrichment did SGPRHYTIAAL [TTR_Y125_R124H] show?
0.468

Further cases:
Bench note: what phosphorylation enrichment did GGSDCYGSLRP [MYLK_Y846_R845C] show?
3.08

Bench note: what phosphorylation enrichment did DTDSSYCIPIA [GAB1_Y373_T377I] show?
0.413

Bench note: what phosphorylation enrichment did TNFPLYLRSLE [MTM1_Y71_R69P_YF] show?
0.505

---

Molecular target: FGFR1 (UniProt P11362)
Sequence (P11362 whole entry, looked up): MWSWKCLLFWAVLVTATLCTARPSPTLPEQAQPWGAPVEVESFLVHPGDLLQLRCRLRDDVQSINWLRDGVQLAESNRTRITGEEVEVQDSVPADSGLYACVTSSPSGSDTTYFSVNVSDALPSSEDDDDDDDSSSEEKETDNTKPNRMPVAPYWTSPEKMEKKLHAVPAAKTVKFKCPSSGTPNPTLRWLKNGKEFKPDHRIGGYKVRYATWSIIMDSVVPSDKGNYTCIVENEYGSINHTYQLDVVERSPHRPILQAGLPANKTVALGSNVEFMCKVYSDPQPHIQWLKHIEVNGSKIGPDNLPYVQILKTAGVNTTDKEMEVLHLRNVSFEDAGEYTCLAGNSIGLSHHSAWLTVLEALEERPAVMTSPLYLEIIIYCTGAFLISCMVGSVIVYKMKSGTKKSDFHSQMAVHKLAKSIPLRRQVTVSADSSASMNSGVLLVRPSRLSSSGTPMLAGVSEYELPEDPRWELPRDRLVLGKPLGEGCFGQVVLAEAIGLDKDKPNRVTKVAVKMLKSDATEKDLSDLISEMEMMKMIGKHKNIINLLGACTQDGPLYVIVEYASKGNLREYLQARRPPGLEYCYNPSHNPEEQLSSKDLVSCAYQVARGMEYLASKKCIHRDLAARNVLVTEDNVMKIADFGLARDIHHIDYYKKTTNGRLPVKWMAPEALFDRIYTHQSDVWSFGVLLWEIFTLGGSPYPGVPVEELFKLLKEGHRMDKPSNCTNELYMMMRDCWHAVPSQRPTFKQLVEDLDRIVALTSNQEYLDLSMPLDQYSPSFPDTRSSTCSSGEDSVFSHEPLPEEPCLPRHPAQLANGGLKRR
Assay: phosphorylation enrichment, bacterial display (enrichment ratio); higher = better substrate or ligand; peptides without Tyr show the background
Class y: phosphorylation enrichment at least 0.6. Class n: phosphorylation enrichment below 0.6.

In plain terms: is recorded phosphorylation enrichment at least 0.6 for FRPPFYHRNCM [HGD_Y334_YF] ?
n

In plain terms: is recorded phosphorylation enrichment at least 0.6 for QLQVFYATRDQ [MIPEP_Y579_L582R] ?
y

In plain terms: is recorded phosphorylation enrichment at least 0.6 for MGSFNYLGFAW [SPTLC2_Y178_R183W_YF] ?
y

In plain terms: is recorded phosphorylation enrichment at least 0.6 for GTFVIYVRFSG [FLNB_Y1687_G1691S_YF] ?
n

In plain terms: is recorded phosphorylation enrichment at least 0.6 for VILENYGADID [DNAH5_Y596_L591V] ?
n

In plain terms: is recorded phosphorylation enrichment at least 0.6 for FEREQYADRAR [RBM4_Y355_YF] ?
n

Further cases:
In plain terms: is recorded phosphorylation enrichment at least 0.6 for CTTIHHNFMCN [TP53_Y234_Y234H_YF] ?
n

In plain terms: is recorded phosphorylation enrichment at least 0.6 for RFLRGYRQDAY [HLA-A_Y137] ?
y

In plain terms: is recorded phosphorylation enrichment at least 0.6 for QNTGDDFDLFG [PTPN11_Y62_Y62D_YF] ?
y

In plain terms: is recorded phosphorylation enrichment at least 0.6 for ALTRSYIREKV [CYP2C8_Y243] ?
n

In plain terms: is recorded phosphorylation enrichment at least 0.6 for VNNTVYGIDAM [EIF3J_Y143_A141T] ?
n

In plain terms: is recorded phosphorylation enrichment at least 0.6 for DDDPEDRKFLE [UPF3B_Y160_Y160D] ?
n

In plain terms: is recorded phosphorylation enrichment at least 0.6 for MAFDRYAAICS [OR8H2_Y123_H120Y_YF] ?
n

In plain terms: is recorded phosphorylation enrichment at least 0.6 for GKSFTYAAFHA [KCNT1_Y563] ?
n

In plain terms: is recorded phosphorylation enrichment at least 0.6 for IGHHAYGDQFR [IDH1_Y135_R132H_YF] ?
n
